- target system: Type-A CCK receptor (Cavia porcellus)
- Construct: cortex and pancreas were removed and rinsed with ice cold saline; from tissue; host or cells: guinea pig pancreas, membranes
- Sequence (Q63931 whole entry): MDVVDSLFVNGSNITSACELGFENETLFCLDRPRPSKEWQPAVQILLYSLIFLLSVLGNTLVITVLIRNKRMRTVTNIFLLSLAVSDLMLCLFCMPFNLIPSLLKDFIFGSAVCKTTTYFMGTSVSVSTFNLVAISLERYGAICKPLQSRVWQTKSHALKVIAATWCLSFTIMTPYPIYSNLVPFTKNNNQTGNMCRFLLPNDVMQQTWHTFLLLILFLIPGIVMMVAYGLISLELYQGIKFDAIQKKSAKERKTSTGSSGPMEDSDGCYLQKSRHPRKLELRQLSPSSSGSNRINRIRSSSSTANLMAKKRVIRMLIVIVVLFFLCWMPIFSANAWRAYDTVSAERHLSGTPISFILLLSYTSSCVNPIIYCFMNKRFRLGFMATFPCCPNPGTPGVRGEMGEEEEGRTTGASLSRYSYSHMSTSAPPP
- assay name: Radioligand binding, [^125 I]-BH-CCK8, Type-A CCK receptor (pancreatic membranes)
- Design: species or system guinea pig
measured endpoint: IC50 (nM)

• CCOC(=O)CN(Cc1ccccc1)C(=O)[C@@H](CCC(=O)OCc1ccccc1)NC(=O)c1cc(O)c2cccc(O)c2n1 = 28

I. CCCCCN(CCCCC)C(=O)[C@@H](CCC(=O)O)NC(=O)c1cnc2ccccc2n1
II. COC(=O)[C@@H](NC(=O)[C@@H](CCC(=O)O)NC(=O)c1cnc2ccccc2c1)c1ccccc1
III. O=C(CC[C@@H](NC(=O)c1cnc2ccccc2c1)C(=O)NCc1ccccc1)OCc1ccccc1
Highest IC50 first, then in falling order down to the smallest. Show the ranking through the labels, in the order asked for. III, II, I
